Assay: Lipophilicity, log P at pH 7.4
Type: physicochemical
Conditions: buffer
readout label: logD
API note: the answer field is a bare number with no unit suffix.

Read the entry `CN(CCC[18F])C(=O)c1cc2ccccc2c(-c2ccccc2I)n1` and write its reported logD.
3

* * *

readout label: pKd
Quick note: pKd means taking -log10 of the concentration in moles per liter.

Give measured pKd for CN1C(=O)CN=C(c2ccc(Cl)cc2)c2cc(Cl)ccc21 [RO-54864] (UniProt:P30536).
Sequence (P30536 whole entry): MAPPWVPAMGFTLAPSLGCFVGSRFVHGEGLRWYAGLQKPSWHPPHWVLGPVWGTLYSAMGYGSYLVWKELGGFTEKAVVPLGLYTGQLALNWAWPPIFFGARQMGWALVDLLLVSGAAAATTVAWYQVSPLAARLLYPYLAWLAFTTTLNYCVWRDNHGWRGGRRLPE
8.22

Recall the reported pKd of `CCCCCCN(CCCCCC)C(=O)Cc1c(-c2ccc(F)cc2)[nH]c2ccccc12` on UniProt:P30536 and write it down.
8.40

This collection of values is drawn from ChEMBL document CHEMBL1150372.
